tested on: human cell-line A549 cells; test: In vitro cytotoxicity, MTT assay; assay type: cell-based; settings: 50 μg/mL, 72 h exposure
Output schema: class label derived from % Cell inhibition at 50 μg/mL. Mapping: group A: < 20%; group B: ≥ 20% and < 30%; group C: ≥ 30%

Past entries and their recorded results:
# Compound, Assigned category
rows = [
    ("CCOC(=O)c1cc2cc(N3CCN(C(=O)C4CCN(S(=O)(=O)c5ccc([N+](=O)[O-])cc5[N+](=O)[O-])C4)CC3)ccc2o1 (centres unmarked)", "group A"),
    ("CCOC(=O)c1cc2cc(N3CCN(C(=O)C4CCN(S(=O)(=O)c5ccc([N+](=O)[O-])cc5[N+](=O)[O-])CC4)CC3)ccc2o1", "group A"),
    ("NC(=O)c1cc2cc(N3CCN(S(=O)(=O)c4ccc([N+](=O)[O-])cc4[N+](=O)[O-])CC3)ccc2o1", "group B"),
    ("CCOC(=O)c1cc2cc(N3CCN(C(=O)C(NS(=O)(=O)c4ccc([N+](=O)[O-])cc4[N+](=O)[O-])c4ccccc4)CC3)ccc2o1 (centres unmarked)", "group B"),
    ("CCOC(=O)c1cc2cc(N3CCN(C(=O)CNS(=O)(=O)c4ccc([N+](=O)[O-])cc4[N+](=O)[O-])CC3)ccc2o1", "group C"),
]

**Q:** Into which bin does this compound go? CCOC(=O)c1cc2cc(N3CCN(C(=O)C4CCCN(S(=O)(=O)c5ccc([N+](=O)[O-])cc5[N+](=O)[O-])C4)CC3)ccc2o1 (centres unmarked)
**A:** group B

**Q:** Into which bin does this compound go? `CCOC(=O)c1cc2cc(N3CCN(C(=O)[C@H]4CCCN4S(=O)(=O)c4ccc([N+](=O)[O-])cc4[N+](=O)[O-])CC3)ccc2o1`
**A:** group C

**Q:** Into which bin does this compound go? `CCOC(=O)c1cc2cc(N3CCN(C(=O)C(C)(C)NS(=O)(=O)c4ccc([N+](=O)[O-])cc4[N+](=O)[O-])CC3)ccc2o1`
**A:** group C

**Q:** Into which bin does this compound go? `CCOC(=O)c1cc2cc(N3CCN(C(=O)CCCNS(=O)(=O)c4ccc([N+](=O)[O-])cc4[N+](=O)[O-])CC3)ccc2o1`
**A:** group C

**Q:** Into which bin does this compound go? `CCOC(=O)c1cc2cc(N3CCN(S(=O)(=O)c4ccc([N+](=O)[O-])cc4[N+](=O)[O-])CC3)ccc2o1`
**A:** group B

**Q:** Into which bin does this compound go? `O=C(c1cc2cc(N3CCN(S(=O)(=O)c4ccc([N+](=O)[O-])cc4[N+](=O)[O-])CC3)ccc2o1)N1CCCCC1`
**A:** group C

**Q:** Into which bin does this compound go? `O=C(Nc1ccccc1)c1cc2cc(N3CCN(S(=O)(=O)c4ccc([N+](=O)[O-])cc4[N+](=O)[O-])CC3)ccc2o1`
**A:** group B

====

Recorded measurements of Anti-TB (MIC), one per entry
tested on: Mtb H37Rv (ATCC27294); test: In vitro anti-TB activity (MIC) against Mtb H37Rv; format: cell-based, Mycobacterium tuberculosis; conditions: Mtb H37Rv; most active compounds tested in triplicates
Provide a numeric answer, followed by its unit.

// worked examples, Anti-TB (MIC) included
# Compound, Experimental target, Anti-TB (MIC)
rows = [
    ("CO[C@H]1/C=C/O[C@@]2(C)Oc3c(C)c(O)c4c(O)c(c(/C=N/N5CCN(C)CC5)c(O)c4c3C2=O)NC(=O)/C(C)=C\\C=C\\[C@H](C)[C@H](O)[C@@H](C)[C@@H](O)[C@@H](C)[C@H](OC(C)=O)[C@@H]1C [Rifampicin, reference compound]", "Mtb H37Rv (ATCC27294)", "0.1 µg/mL"),
    ("CCOC(=O)c1cc2cc(N3CCN(C(=O)C(C)(C)NS(=O)(=O)c4ccc([N+](=O)[O-])cc4[N+](=O)[O-])CC3)ccc2o1", "Mtb H37Rv (ATCC27294)", "0.78 µg/mL"),
    ("CCOC(=O)c1cc2cc(N3CCN(S(=O)(=O)c4ccc([N+](=O)[O-])cc4[N+](=O)[O-])CC3)ccc2o1", "Mtb H37Rv (ATCC27294)", "0.78 µg/mL"),
    ("NNC(=O)c1ccncc1 [Isoniazid, reference compound]", "Mtb H37Rv (ATCC27294)", "0.05 µg/mL"),
    ("O=C(c1cc2cc(N3CCN(S(=O)(=O)c4ccc([N+](=O)[O-])cc4[N+](=O)[O-])CC3)ccc2o1)N1CCCCC1", "Mtb H37Rv (ATCC27294)", "1.56 µg/mL"),
]

Moving on to the next compound.
The observed Anti-TB (MIC) for CC[C@@H](CO)NCCN[C@@H](CC)CO [Ethambutol, reference compound] when tested with Mtb H37Rv (ATCC27294) stands at 1.56 µg/mL

====

experiment: In vitro cytotoxicity, MTT assay; format: cell-based, human; settings: human, A549 cells, read-out: Human cell lines A549 IC50 approximation
Readout: IC50 at 72 h

# Compound, Readout, Test result
rows = [
    ("CCOC(=O)c1cc2cc(N3CCN(C(=O)C4CCN(S(=O)(=O)c5ccc([N+](=O)[O-])cc5[N+](=O)[O-])C4)CC3)ccc2o1 (stereo not drawn)", "IC50 at 72 h", "> 50 µg/mL"),
    ("CCOC(=O)c1cc2cc(N3CCN(C(=O)C4CCCN(S(=O)(=O)c5ccc([N+](=O)[O-])cc5[N+](=O)[O-])C4)CC3)ccc2o1 (stereo not drawn)", "IC50 at 72 h", "> 50 µg/mL"),
]

Moving on to the next compound.
The reported value for `CCOC(=O)c1cc2cc(N3CCN(S(=O)(=O)c4ccc([N+](=O)[O-])cc4[N+](=O)[O-])CC3)ccc2o1` in terms of IC50 at 72 h is > 50 µg/mL
